Measured Kd of individual entries
# EXPERIMENTAL TARGET: FGFR1 (Homo sapiens)
# Construct: made in house; host or cells: E. coli derived from BL21, infected with T7 phage
# Sequence (P11362 22-822): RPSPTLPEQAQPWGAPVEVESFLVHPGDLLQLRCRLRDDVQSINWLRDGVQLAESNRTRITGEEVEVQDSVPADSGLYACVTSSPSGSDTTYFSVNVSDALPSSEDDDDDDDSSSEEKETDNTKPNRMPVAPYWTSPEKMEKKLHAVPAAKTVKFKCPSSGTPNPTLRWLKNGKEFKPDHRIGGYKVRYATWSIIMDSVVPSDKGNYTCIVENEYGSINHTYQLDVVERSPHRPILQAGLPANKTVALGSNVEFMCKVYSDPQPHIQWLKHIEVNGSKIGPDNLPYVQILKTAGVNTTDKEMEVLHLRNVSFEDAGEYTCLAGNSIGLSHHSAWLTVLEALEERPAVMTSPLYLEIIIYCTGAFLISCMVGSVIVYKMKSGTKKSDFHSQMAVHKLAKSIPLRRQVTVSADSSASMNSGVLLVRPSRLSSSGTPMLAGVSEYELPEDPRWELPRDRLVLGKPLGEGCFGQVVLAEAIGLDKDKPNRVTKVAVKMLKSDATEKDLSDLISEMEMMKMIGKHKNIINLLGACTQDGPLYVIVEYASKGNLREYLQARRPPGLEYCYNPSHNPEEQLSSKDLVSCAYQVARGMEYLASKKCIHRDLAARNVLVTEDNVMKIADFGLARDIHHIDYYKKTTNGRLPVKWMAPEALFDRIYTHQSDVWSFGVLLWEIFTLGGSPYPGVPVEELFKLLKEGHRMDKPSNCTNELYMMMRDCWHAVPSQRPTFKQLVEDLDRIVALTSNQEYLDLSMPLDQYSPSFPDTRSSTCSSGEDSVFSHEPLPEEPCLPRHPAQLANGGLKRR
# MEASUREMENT DESCRIPTION: Kinase binding assay (kinase-tagged T7 phage, affinity beads, qPCR readout), FGFR1
# RUN PARAMETERS: FGFR binding data

As a guide, the following entries are already answered.
[
  {
    "SAMPLE SMILES": "C=CC(=O)Nc1ccc2c(ccn2-c2nc(Nc3ccccc3OCC)ncc2Cl)c1",
    "Kd": "> 1000 nM"
  },
  {
    "SAMPLE SMILES": "C=CC(=O)Nc1ccc2c(c1)c(C)cn2-c1nc(Nc2cn(C[C@@H](C)O)nc2C)ncc1F",
    "Kd": "0.1 to 100 nM"
  },
  {
    "SAMPLE SMILES": "C=CC(=O)Nc1ccc2c(-c3ccnc(Nc4ccn(CC)n4)n3)cn(C)c2c1",
    "Kd": "100 to 250 nM"
  },
  {
    "SAMPLE SMILES": "CCn1ccc(Nc2ncc(C)c(-n3cc(C)c4cc(NC(=O)/C=C/CN(C)C)cnc43)n2)n1",
    "Kd": "100 to 250 nM"
  },
  {
    "SAMPLE SMILES": "C=CC(=O)Nc1ccc2c(c1)c(C)cn2-c1nc(Nc2ccc(N3CCOCC3)nc2)ncc1Cl",
    "Kd": "0.1 to 100 nM"
  }
]

Consider C=CC(=O)Nc1ccc2c(c1)c(C)cn2-c1nc(Nc2cnn3c2CCC3)ncc1F . Its measured Kd is 0.1 to 100 nM

The recorded Kd for C=CC(=O)Nc1ccc2c(ccn2-c2nc(Nc3cn(C)nc3OC)ncc2Cl)c1 is 250 to 1000 nM

For this molecule ( C=CC(=O)Nc1ccc2c(c1)c(C)cn2-c1nc(Nc2cnn(CCO)c2)ncc1F ), measured Kd is 0.1 to 100 nM

----------
Recorded Kd, one value per entry.
# EXPERIMENTAL TARGET: FGFR3 (Homo sapiens)
# Construct: made in house; host or cells: E. coli derived from BL21, infected with T7 phage
# Sequence (P22607 23-806): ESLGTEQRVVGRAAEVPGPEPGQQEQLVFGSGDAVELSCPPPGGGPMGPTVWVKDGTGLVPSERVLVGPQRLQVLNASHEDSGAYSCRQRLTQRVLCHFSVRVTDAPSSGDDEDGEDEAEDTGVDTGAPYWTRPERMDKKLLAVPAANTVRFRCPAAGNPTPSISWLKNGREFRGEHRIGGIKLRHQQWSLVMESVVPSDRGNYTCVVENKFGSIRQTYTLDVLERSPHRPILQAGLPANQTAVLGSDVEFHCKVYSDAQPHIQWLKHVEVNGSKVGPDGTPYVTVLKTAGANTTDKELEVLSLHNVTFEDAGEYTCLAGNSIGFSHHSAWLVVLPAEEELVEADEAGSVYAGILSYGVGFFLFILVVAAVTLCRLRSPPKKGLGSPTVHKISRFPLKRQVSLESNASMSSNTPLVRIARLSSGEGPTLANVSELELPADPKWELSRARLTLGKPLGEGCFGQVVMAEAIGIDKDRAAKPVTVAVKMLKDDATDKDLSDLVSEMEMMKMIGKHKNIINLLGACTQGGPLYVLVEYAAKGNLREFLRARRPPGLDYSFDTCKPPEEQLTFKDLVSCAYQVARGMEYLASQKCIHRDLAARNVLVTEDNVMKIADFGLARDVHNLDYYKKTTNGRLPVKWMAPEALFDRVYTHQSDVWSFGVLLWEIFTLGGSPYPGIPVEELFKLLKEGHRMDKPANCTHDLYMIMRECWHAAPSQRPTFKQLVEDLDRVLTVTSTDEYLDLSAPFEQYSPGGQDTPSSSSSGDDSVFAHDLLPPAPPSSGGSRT
# MEASUREMENT DESCRIPTION: Kinase binding assay (kinase-tagged T7 phage, affinity beads, qPCR readout), FGFR3
# RUN PARAMETERS: FGFR binding data

Here is how some compounds turned out for Kd.
[
  {
    "SAMPLE SMILES": "C=CC(=O)Nc1ccc2c(c1)c(C)cn2-c1nc(Nc2cn(C)nc2C#N)ncc1Cl",
    "Kd": "0.1 to 100 nM"
  },
  {
    "SAMPLE SMILES": "C=CC(=O)Nc1ccc2c(c1)c(C)cn2-c1nc(Nc2cn(CC)nc2C)ncc1F",
    "Kd": "0.1 to 100 nM"
  },
  {
    "SAMPLE SMILES": "Cc1cn(-c2nc(Nc3cnn(C[C@H](C)O)c3)ncc2F)c2ncc(NC(=O)/C=C/CN3CCOCC3)cc12",
    "Kd": "100 to 250 nM"
  },
  {
    "SAMPLE SMILES": "C=CC(=O)Nc1ccc2c(-c3nc(Nc4ccc(N(C)CCN(C)C)c(OC)c4)ncc3Cl)cn(C)c2c1",
    "Kd": "0.1 to 100 nM"
  }
]

Lab note: C=CC(=O)Nc1ccc2c(c1)c(C)cn2-c1cc(Nc2cnn(C)c2)nnc1C gave Kd of > 1000 nM

Entry C=CC(=O)Nc1ccc2c(-c3ccnc(Nc4cnn(C)c4)n3)cn(C)c2c1 ; Kd = 0.1 to 100 nM

----------
# EXPERIMENTAL TARGET: FGFR2 (Homo sapiens)
# Construct: made in house; host or cells: E. coli derived from BL21, infected with T7 phage
# Sequence (P21802 22-821): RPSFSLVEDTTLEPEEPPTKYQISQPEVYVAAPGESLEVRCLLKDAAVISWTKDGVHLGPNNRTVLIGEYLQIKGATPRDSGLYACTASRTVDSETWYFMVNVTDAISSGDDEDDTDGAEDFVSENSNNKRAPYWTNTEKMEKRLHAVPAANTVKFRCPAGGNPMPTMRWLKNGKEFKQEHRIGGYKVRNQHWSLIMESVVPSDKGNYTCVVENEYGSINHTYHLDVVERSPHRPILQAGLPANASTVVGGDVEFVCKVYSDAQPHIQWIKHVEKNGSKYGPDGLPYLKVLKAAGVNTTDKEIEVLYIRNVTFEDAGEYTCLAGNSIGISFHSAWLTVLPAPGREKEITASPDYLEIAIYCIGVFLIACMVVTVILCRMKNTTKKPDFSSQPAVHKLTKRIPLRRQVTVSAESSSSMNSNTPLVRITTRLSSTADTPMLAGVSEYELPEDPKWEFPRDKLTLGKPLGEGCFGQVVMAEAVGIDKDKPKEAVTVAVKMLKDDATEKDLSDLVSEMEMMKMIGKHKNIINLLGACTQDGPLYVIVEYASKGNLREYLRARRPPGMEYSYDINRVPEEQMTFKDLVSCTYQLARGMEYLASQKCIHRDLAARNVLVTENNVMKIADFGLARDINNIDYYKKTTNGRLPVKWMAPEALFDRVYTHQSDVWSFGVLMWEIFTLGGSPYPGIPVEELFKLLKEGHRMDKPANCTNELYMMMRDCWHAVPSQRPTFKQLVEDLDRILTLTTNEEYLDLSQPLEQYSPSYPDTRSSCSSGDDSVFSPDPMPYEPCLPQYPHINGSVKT
# MEASUREMENT DESCRIPTION: Kinase binding assay (kinase-tagged T7 phage, affinity beads, qPCR readout), FGFR2
# RUN PARAMETERS: FGFR binding data
MEASURED PROPERTY: Kd

# annotated cases, reported Kd shown
[
  {
    "MOLECULE": "CC#CC(=O)Nc1cnc2c(c1)c(C)cn2-c1nc(Nc2ccnn2C)ncc1C [Example 131]",
    "Kd": "> 1000 nM"
  },
  {
    "MOLECULE": "Cc1cnc(Nc2cn(C)nc2C)nc1-n1cc(C)c2cc(NC(=O)/C=C/CN(C)C)cnc21 [Example 200]",
    "Kd": "0.1 to 100 nM"
  },
  {
    "MOLECULE": "C=CC(=O)Nc1ccc2c(c1)c(C)cn2-c1nc(Nc2ccc(CN3CCN(C)CC3)cc2)ncc1Cl [Example 65]",
    "Kd": "0.1 to 100 nM"
  },
  {
    "MOLECULE": "C=CC(=O)Nc1ccc2c(c1)c(C)cn2-c1nc(Nc2conc2C)ncc1F [Example 155]",
    "Kd": "0.1 to 100 nM"
  },
  {
    "MOLECULE": "C=CC(=O)Nc1ccc2c(-c3ccnc(Nc4cnn(C(F)(F)F)c4)n3)cn(C)c2c1 [Example 184]",
    "Kd": "0.1 to 100 nM"
  },
  {
    "MOLECULE": "C=CC(=O)Nc1ccc2c(c1)c(C)cn2-c1nc(Nc2cnn(CCO)c2)ncc1C [Example 121]",
    "Kd": "0.1 to 100 nM"
  },
  {
    "MOLECULE": "C=C(C)C(=O)Nc1ccc2c(c1)c(C)cn2-c1nc(Nc2ccnn2C)ncc1C [Example 104]",
    "Kd": "> 1000 nM"
  },
  {
    "MOLECULE": "C=CC(=O)Nc1ccc2c(c1)c(C)cn2-c1nc(Nc2cn(CCO)nc2C)ncc1F [Example 176]",
    "Kd": "0.1 to 100 nM"
  }
]

The reported Kd value, FGFR2 (Homo sapiens), for C=CC(=O)Nc1ccc2c(-c3nc(Nc4cc(C)nn4C)ncc3Cl)cn(C)c2c1 [Example 63] reads 0.1 to 100 nM

Tested system FGFR2 (Homo sapiens); Kd recorded for C=CC(=O)Nc1ccc2c(c1)c(C)cn2-c1nc(Nc2ccc(N3CCOCC3)cc2)ncc1C#N [Example 38] was 0.1 to 100 nM

Record for C=CC(=O)Nc1cnc2c(c1)c(C)cn2-c1nc(Nc2ccn(C3COC3)n2)ncc1C [Example 113] under target or system FGFR2 (Homo sapiens): Kd reported as 0.1 to 100 nM

Log: FGFR2 (Homo sapiens), molecule C=CC(=O)Nc1ccc2c(-c3ccnc(Nc4ccn(CCO)n4)n3)cn(C)c2c1 [Example 101] , Kd = 250 to 1000 nM

Entry C=CC(=O)Nc1ccc2c(-c3ccnc(Nc4cnn(CC(F)(F)F)c4)n3)cn(C)c2c1 [Example 168] , FGFR2 (Homo sapiens) data, Kd value: 0.1 to 100 nM

Assay FGFR2 (Homo sapiens), sample CCn1cc(Nc2ncc(F)c(-n3cc(C)c4cc(NC(=O)/C=C/CN(C)C)cnc43)n2)c(C)n1 [Example 171] , Kd read: 100 to 250 nM

Sample C=CC(=O)Nc1ccc2c(ccn2-c2nc(Nc3ccc(OCCN4CCOCC4)cc3)ncc2Cl)c1 [Example 10] , system: FGFR2 (Homo sapiens). Its Kd is 100 to 250 nM

Measured Kd for this entry C=CC(=O)Nc1ccc2c(c1)c(C)cn2-c1nc(Nc2cnn(CCO)c2C)ncc1F [Example 192] on FGFR2 (Homo sapiens): 0.1 to 100 nM

Form: item C=CC(=O)Nc1ccc2c(c1)c(C)c(C)n2-c1nc(Nc2cnn(C)c2)ncc1F [Example 226] ; test system FGFR2 (Homo sapiens); Kd: 0.1 to 100 nM

----------
# EXPERIMENTAL TARGET: FGFR3 (V555M) (Homo sapiens, UniProt P22607, V555M)
# Construct: made in house; host or cells: E. coli derived from BL21, infected with T7 phage
# Sequence (P22607 23-806 V555M): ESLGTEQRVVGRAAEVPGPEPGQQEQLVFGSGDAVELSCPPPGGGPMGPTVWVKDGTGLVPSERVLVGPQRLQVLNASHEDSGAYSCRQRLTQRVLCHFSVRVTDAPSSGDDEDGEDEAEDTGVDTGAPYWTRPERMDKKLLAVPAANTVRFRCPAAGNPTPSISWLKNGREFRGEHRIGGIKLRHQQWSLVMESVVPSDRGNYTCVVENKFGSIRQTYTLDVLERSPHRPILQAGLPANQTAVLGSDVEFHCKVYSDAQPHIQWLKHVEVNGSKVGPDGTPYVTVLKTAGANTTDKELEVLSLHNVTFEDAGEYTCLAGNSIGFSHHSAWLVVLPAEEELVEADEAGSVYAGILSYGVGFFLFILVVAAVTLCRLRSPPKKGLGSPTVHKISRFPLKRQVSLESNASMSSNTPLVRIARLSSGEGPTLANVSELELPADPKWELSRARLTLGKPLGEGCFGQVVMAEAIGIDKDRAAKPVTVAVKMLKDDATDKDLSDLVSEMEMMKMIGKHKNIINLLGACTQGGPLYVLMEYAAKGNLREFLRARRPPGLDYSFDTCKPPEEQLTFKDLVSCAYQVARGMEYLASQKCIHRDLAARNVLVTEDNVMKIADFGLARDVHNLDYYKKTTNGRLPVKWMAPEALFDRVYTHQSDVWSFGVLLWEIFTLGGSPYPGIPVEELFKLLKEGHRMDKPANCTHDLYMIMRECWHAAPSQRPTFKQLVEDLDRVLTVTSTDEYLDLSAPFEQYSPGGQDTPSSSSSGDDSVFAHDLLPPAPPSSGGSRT
# MEASUREMENT DESCRIPTION: Kinase binding assay (kinase-tagged T7 phage, affinity beads, qPCR readout), FGFR3 (V555M)
# RUN PARAMETERS: FGFR binding data
Recorded Kd for the following compounds

Some compounds with known Kd results, for comparison:
[
  {
    "COMPOUND": "C=CC(=O)Nc1ccc2c(c1)c(C)cn2-c1nc(Nc2cn(C)nc2C#N)ncc1Cl [Example 70]",
    "Kd": "0.1 to 100 nM"
  },
  {
    "COMPOUND": "C=CC(=O)Nc1ccc2c(c1)c(C)cn2-c1nc(Nc2cnn(C3CCOCC3)c2)ncc1F [Example 208]",
    "Kd": "0.1 to 100 nM"
  },
  {
    "COMPOUND": "C=CC(=O)Nc1ccc2c(-c3nc(Nc4ccc(N5CCOCC5)cc4)ncc3Cl)cn(C)c2c1 [Example 27]",
    "Kd": "0.1 to 100 nM"
  }
]

C=CC(=O)Nc1ccc2c(c1)c(C)cn2-c1nc(Nc2cnn(C[C@@H](C)OC)c2)ncc1F [Example 210] yielded Kd of 0.1 to 100 nM

Reported Kd for C=CC(=O)Nc1ccc2c(c1)c(C)cn2-c1nc(Nc2cnn(CCCO)c2)ncc1F [Example 160] was 0.1 to 100 nM

Value of Kd reported for the compound C=CC(=O)Nc1ccc2c(-c3nc(Nc4cn(CC(F)F)nc4C)ncc3F)cn(C)c2c1 [Example 169] is 0.1 to 100 nM

Measured values drawn from patent US20240190849A1 for this set.
